From: paper PMC7954794

B1: S. cerevisiae Abp1 (full length; SH3 domain 535-592 mutated) / Hua2 (parent)
chain 1: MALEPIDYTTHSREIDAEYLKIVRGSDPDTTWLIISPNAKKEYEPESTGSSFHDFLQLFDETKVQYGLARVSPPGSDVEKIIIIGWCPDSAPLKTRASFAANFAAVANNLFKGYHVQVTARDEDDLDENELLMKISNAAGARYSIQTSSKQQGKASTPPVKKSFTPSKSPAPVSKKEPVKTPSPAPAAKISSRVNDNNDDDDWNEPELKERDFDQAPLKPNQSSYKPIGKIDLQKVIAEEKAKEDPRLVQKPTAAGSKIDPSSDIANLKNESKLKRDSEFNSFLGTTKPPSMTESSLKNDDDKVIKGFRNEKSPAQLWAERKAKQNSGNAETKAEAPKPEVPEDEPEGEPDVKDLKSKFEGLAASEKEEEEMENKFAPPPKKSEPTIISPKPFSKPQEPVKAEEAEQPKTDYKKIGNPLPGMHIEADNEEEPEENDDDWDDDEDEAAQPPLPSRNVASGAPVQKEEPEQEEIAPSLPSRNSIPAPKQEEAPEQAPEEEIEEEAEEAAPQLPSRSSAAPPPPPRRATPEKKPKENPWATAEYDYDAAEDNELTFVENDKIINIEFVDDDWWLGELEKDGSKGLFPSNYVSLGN
chain 2: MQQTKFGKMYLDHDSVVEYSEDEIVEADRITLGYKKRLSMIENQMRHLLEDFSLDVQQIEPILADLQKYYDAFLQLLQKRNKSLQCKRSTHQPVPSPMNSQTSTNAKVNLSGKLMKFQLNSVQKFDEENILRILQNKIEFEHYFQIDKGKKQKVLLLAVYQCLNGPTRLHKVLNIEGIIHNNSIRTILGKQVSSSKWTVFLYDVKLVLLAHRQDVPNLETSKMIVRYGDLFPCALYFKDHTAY

Variants of: B1
Experiment: DHFR protein-fragment complementation in yeast (Abp1-DHFR F[1,2] x partner-DHFR F[3]), deep mutational scanning, second methotrexate selection vs reference
Conditions: with Hua2; S. cerevisiae, DHFR-PCA selection in liquid with methotrexate at 30 C, two 72 h selections (the score uses the second); reference = the pre-selection culture; not an affinity; scale: DMS score: mean over two replicates of log2(f_test/f_ref + 0.5)/ln 2, minus the synonymous-codon median
Could you label it rule met if measured screen value is -2 or higher, and rule not met otherwise?

{"mutant_name": "chain 1 A545P", "class_label": "rule met"}
{"mutant_name": "chain 1 F564L", "class_label": "rule met"}
{"mutant_name": "chain 1 D577G", "class_label": "rule met"}
{"mutant_name": "chain 1 E573K", "class_label": "rule met"}
{"mutant_name": "chain 1 D577N", "class_label": "rule not met"}
{"mutant_name": "chain 1 D577V", "class_label": "rule not met"}
{"mutant_name": "chain 1 D548Y", "class_label": "rule met"}
{"mutant_name": "chain 1 K576I", "class_label": "rule met"}
{"mutant_name": "chain 1 E550V", "class_label": "rule not met"}
{"mutant_name": "chain 1 A539S", "class_label": "rule met"}
